Data origin, for the record: patent US20050042701A1

# experimental protocol: 1st phase clinical test: pharmacokinetics of petasin in serum after single oral administration of tablets containing butterbur extract (open crossover; enzyme immunoassay)
# Assay type: in vivo, human (clinically healthy men)
# condition details: male, human, serum; 4 tablets, single oral; mean ± SD
measurement type: half-life (h)

- compound: "C=C(C)C1CC2(C)C(=CC1=O)CCC(OC(=O)/C(C)=C\\C)C2C (stereo not shown) [petasin]"
  number: 7.62

###

# experimental protocol: 1st phase clinical test: pharmacokinetics of petasin in serum after single oral administration of tablets containing butterbur extract (open crossover; enzyme immunoassay)
# Assay type: in vivo, human (clinically healthy men)
# condition details: male, human, serum, oral, 2 tablets, after administering 2 tablets; 12 h p.a.; read-out: Petasin serum concentration Min.

- molecule: "C=C(C)C1CC2(C)C(=CC1=O)CCC(OC(=O)/C(C)=C\\C)C2C (stereo not shown)"
  concentration at 12 h: "1.1 ng/mL"
